tested-system: RSV G protein (receptor-binding glycoprotein) (human respiratory syncytial virus, …)
Sequence (P20896 66-292): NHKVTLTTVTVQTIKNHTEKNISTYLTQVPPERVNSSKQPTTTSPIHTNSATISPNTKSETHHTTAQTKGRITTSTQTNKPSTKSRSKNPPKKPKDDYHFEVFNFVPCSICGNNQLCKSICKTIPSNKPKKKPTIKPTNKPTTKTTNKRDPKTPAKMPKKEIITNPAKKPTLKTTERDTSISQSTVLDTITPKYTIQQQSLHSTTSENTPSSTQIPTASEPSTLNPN
experimental-details: cell-based or functional assay
quantity: EC50, PRNT with complement, RSV subtype A (µg/mL)

>  <binder>
antibody from clone 855 (antibody, human IgG1, kappa, V domains shown) VH: QVQLVQSGPEVKKPGASVKVSCKASGYVLTNYAFSWVRQAPGQGLEWLGWISGSNGNTYYAEKFQGRVTMTTDTSTSTAYMELRSLRSDDTAVYFCARDLLRSTYFDYWGQGTLVTVSS VL: DIQMTQSPSSVSASVGDRVTITCRASQAISNWLAWYQQKPGKAPKLLIYAASSLQSGVPSRFSGSGSGTDFTLTISGLQPEDFATYYCQQADTFPFTFGPGTKVDIKR

>  <observed-result>
6.35

$$$$
>  <binder>
antibody from clone 853 (antibody, human IgG1, kappa, V domains shown) VH: EVQLVQSGAEVKKPGQSLKISCKTSGYIFTNYWIGWVRQRPGKGLEWMGVIFPADSDARYSPSFQGQVTISADKSIGTAYLQWSSLKASDTAIYYCARPKYYFDSSGQFSEMYYFDFWGQGTLVTVSS VL: EIVLTQSPGTLSLSPGERATLSCRASQSVSSNYLAWYQQKPGQAPRLLIYGASSRAAGMPDRFSGSGSGTDFTLTISRLEPEDFAVYYCQQYGNSPLTFGGGTEVEIKR

>  <observed-result>
1.49

$$$$
>  <binder>
antibody from clone 888 (antibody, human IgG1, kappa, V domains shown) VH: QLQLQESGPGLVKPSETLSLTCTASGGSINSSNFYWGWIRQPPGKGLEWIGSIFYSGTTYYNPSLKSRVTISVDTSKNQFSLKLSPVTAADTAVYHCARHGFRYCNNGVCSINLDAFDIWGQGTMVTVSS VL: DIVMTQSPLSLPVTPGAPASISCRSSQSLLRTNGYNYLDWYLQKPGQSPQLLIYLGSIRASGVPDRFSGSGSGTDFTLKISRVEAEDVGVYYCMQSLQTSITFGQGTRLEIKR

>  <observed-result>
0.14

$$$$
>  <binder>
antibody from clone 793 (antibody, human IgG1, kappa, V domains shown) VH: QVQLVESGGGLVKPGGSLRLSCAASGFPFGDYYMSWIRQAPGKGLEWVAYINRGGTTIYYADSVKGRFTISRDNAKNSLFLQMNSLRAGDTALYYCARGLILALPTATVELGAFDIWGQGTMVTVSS VL: DIQMTQSPSSLSASVGDRVTITCRASQSITGYLNWYQQKPGKAPKLLIYATSTLQSEVPSRFSGSGSGTDFTLTISSLQPEDFATYYCQQSYNTLTFGGGTKVEIKR

>  <observed-result>
2.52

$$$$
